- assayProcedure: Type I diabetic rat model, 1-week oral treatment: glucose, adverse events, serum level
- Type: in vivo
- recordedConditions: male, Sprague-Dawley, rat, serum, 100 mg/kg; diabetic rats, 1 week oral treatment, FIG. 7
endpointLabel: concentration at 7 days

Query: # return recorded concentration at 7 days for entry COC(=O)C(C(=O)/C=C/c1ccc(O)c(OC)c1)C(=O)/C=C/c1ccc(O)c(OC)c1
Reply: ~100 ng/mL

---

Record form. Attribute: inhibition at 100 µM. Fill in for each entry.
- targetDesc: MMP-9 (human leukocyte gelatinase) (Homo sapiens (Human), UniProt P14780)
- Sequence (P14780 94-707): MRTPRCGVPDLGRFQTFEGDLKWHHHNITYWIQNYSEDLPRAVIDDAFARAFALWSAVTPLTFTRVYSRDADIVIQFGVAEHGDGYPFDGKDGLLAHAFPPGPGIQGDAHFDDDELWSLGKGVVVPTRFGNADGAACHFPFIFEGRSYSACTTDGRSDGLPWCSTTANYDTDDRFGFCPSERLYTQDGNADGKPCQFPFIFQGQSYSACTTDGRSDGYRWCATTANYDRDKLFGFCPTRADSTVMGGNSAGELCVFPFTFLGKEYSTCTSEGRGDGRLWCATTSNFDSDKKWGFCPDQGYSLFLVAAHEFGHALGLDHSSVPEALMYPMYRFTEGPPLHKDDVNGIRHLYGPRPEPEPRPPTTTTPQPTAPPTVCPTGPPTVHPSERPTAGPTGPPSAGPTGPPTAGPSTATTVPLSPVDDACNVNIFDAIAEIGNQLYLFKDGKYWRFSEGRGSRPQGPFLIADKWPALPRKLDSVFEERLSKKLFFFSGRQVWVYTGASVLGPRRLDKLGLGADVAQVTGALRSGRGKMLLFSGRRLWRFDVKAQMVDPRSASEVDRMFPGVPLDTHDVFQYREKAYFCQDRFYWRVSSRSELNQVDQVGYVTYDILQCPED
- assayProcedure: MMP-9 inhibition in vitro, octapeptide substrate, HPLC
- Type: biochemical
- recordedConditions: read-out: Maximum Inhibition At 100 μM compound (MMP-9)
Answers are plain numbers, in %.

Solved entries (count: 4):
Query: # return recorded inhibition at 100 µM for entry COC(=O)C(C(=O)/C=C/c1ccc(O)c(OC)c1)C(=O)/C=C/c1ccc(O)c(OC)c1
Reply: 72

Query: # return recorded inhibition at 100 µM for entry COc1cc(/C=C/C(=O)CC(=O)/C=C/c2ccc(O)c(OC)c2)ccc1O
Reply: 58

Query: # return recorded inhibition at 100 µM for entry COC(=O)C(C(=O)/C=C/c1ccc(O)cc1)C(=O)/C=C/c1ccc(O)cc1
Reply: 68

Query: # return recorded inhibition at 100 µM for entry c1cnc2c(c1)ccc1cccnc12 [1,10-phenanthroline, 1,10-O-phenanthroline, reference compound]
Reply: 100

---
Query: # return recorded inhibition at 100 µM for entry COc1cc(/C=C/C(=O)CC(=O)/C=C/c2ccc(N(C)C)cc2)ccc1O
Reply: 100

---

- targetDesc: MMP-13 (Collagenase-3) (Homo sapiens (Human))
- assayProcedure: MMP-13 inhibition in vitro, octapeptide substrate, HPLC
- Type: biochemical
- recordedConditions: read-out: MMP-13 Maximum Inhibition @100 μM
Record form. Attribute: inhibition at 100 µM. Fill in for each entry.
Numbers only, in %.

Query: # return recorded inhibition at 100 µM for entry c1cnc2c(c1)ccc1cccnc12 [1,10-phenanthroline, 1,10-O-phenanthroline, reference compound]
Reply: 100

Query: # return recorded inhibition at 100 µM for entry COc1cc(/C=C/C(=O)CC(=O)/C=C/c2ccc(N(C)C)cc2)ccc1O
Reply: 50

Query: # return recorded inhibition at 100 µM for entry COC(=O)C(C(=O)/C=C/c1ccc(O)cc1)C(=O)/C=C/c1ccc(O)cc1
Reply: 76

Please turn your attention to the following entry.
Query: # return recorded inhibition at 100 µM for entry COC(=O)C(C(=O)/C=C/c1ccc(O)c(OC)c1)C(=O)/C=C/c1ccc(O)c(OC)c1
Reply: 69
